System: Proteus mirabilis (PMI) isolates
Assay: microbe, parasite or virus in culture
Format: cell-based
Conditions: PMI UFR124; AF1 @ 4 μg/mL
MEASURE: MIC ATB in combination

See these solved cases before continuing.
SMILES_CODE	MIC ATB in combination
C=CC1=C(C(=O)O)N2C(=O)[C@@H](NC(=O)/C(=N\OCC(=O)O)c3csc(N)n3)[C@H]2SC1	<=0.25 μg/mL
COCC1=C(C(=O)O)N2C(=O)[C@@H](NC(=O)/C(=N\OC)c3csc(N)n3)[C@H]2SC1	<=0.25 μg/mL
CO/N=C(\C(=O)N[C@@H]1C(=O)N2C(C(=O)O)=C(COC(N)=O)CS[C@H]12)c1ccco1	1 µg/mL
CC1(C)S[C@@H]2[C@H](NC(=O)[C@H](N)c3ccc(O)cc3)C(=O)N2[C@H]1C(=O)O	<=0.25 μg/mL
CC(C)(O/N=C(\C(=O)N[C@@H]1C(=O)N2C(C(=O)[O-])=C(C[n+]3ccccc3)CS[C@H]12)c1csc(N)n1)C(=O)O	<=0.25 μg/mL

Next:
-- ask Could you please provide reported MIC ATB in combination for `C=CC1=C(C(=O)O)N2C(=O)[C@@H](NC(=O)/C(=N\O)c3csc(N)n3)[C@H]2SC1` ? Thanks!
-- reply <=0.25 μg/mL

---

Tested on: Escherichia coli (ECO) isolates
Test: MIC of compounds alone and combined with antibacterials, broth microdilution (CLSI)
Format: cell-based
Details: ECO UFR191; AF1 @ 4 μg/mL
Protocol: Method 2: MIC of Compounds Alone and Combined with Antibacterials Against Bacterial Isolates. Compounds of the present invention were assessed against genotyped bacterial strains (Table 3, 4) alone or in combination with an antibacterial (Table 2). […] The MIC of the compounds was defined as the lowest concentration of said compounds that prevented bacterial growth as read by visual inspection. […]
MEASURE: MIC ATB in combination

See these solved cases before continuing.
SMILES_CODE	MIC ATB in combination
CO/N=C(\C(=O)N[C@@H]1C(=O)N2C(C(=O)O)=C(COC(N)=O)CS[C@H]12)c1ccco1	8 µg/mL
C=CC1=C(C(=O)O)N2C(=O)[C@@H](NC(=O)/C(=N\O)c3csc(N)n3)[C@H]2SC1	1 µg/mL
CC(C)(O/N=C(\C(=O)N[C@@H]1C(=O)N2C(C(=O)[O-])=C(C[n+]3ccccc3)CS[C@H]12)c1csc(N)n1)C(=O)O	<=0.25 μg/mL
COCC1=C(C(=O)O)N2C(=O)[C@@H](NC(=O)/C(=N\OC)c3csc(N)n3)[C@H]2SC1	<=0.25 μg/mL

-- ask Could you please provide reported MIC ATB in combination for `C=CC1=C(C(=O)O)N2C(=O)[C@@H](NC(=O)/C(=N\OCC(=O)O)c3csc(N)n3)[C@H]2SC1` ? Thanks!
-- reply <=0.25 μg/mL

-- ask Could you please provide reported MIC ATB in combination for `CC1(C)S[C@@H]2[C@H](NC(=O)[C@H](N)c3ccc(O)cc3)C(=O)N2[C@H]1C(=O)O` ? Thanks!
-- reply 8 µg/mL

---

Test system: Enterobacter aerogenes (EAE) isolates
Assay: MIC of compounds alone and combined with antibacterials, broth microdilution (CLSI)
Assay type: cell-based
Settings: EAE UFR201; AF1 @ 4 μg/mL
MEASURE: MIC ATB in combination

COMPOUND	RESULT
CC(C)(O/N=C(\C(=O)N[C@@H]1C(=O)N2C(C(=O)[O-])=C(C[n+]3ccccc3)CS[C@H]12)c1csc(N)n1)C(=O)O [CAZ, Ceftazidime]	0.5 µg/mL
C=CC1=C(C(=O)O)N2C(=O)[C@@H](NC(=O)/C(=N\OCC(=O)O)c3csc(N)n3)[C@H]2SC1 [FIX, Cefixime]	<=0.25 μg/mL
COCC1=C(C(=O)O)N2C(=O)[C@@H](NC(=O)/C(=N\OC)c3csc(N)n3)[C@H]2SC1 [POD, Cefpodoxime]	<=0.25 μg/mL

Source: patent US20200017496A1
